Reference source for all entries: ChEMBL document CHEMBL1201862

tested on: SK-OV-3; assay: NCI tumour cell line growth inhibition, 48 h
Activity calls are given as the source filed them. Cut-off read from the data, not from the text of the source: active = GI50 up to about 1.1 µM and inactive = higher.
Would you mind answering with one of these outcomes? active, inactive

Reference set (8 entries):
molecule	category.label
CCN(CC)c1ccc2cc(-c3nc4ccccc4n3C)c(=O)oc2c1	active
CCOC(=O)C1=c2[nH]c3cccc4cccc(c43)n2C=C(C(C)=O)C1CC(C)=O (stereo unspecified)	inactive
c1ccc([P+](CC[P+](c2ccccc2)(c2ccccc2)c2ccccc2)(c2ccccc2)c2ccccc2)cc1	inactive
CS(=O)(=O)CC(=O)c1ccccc1	inactive
Cc1cn(C2CC(n3cc(Cn4cc(F)c(=O)[nH]c4=O)nn3)C(CO)O2)c(=O)[nH]c1=O (stereo unspecified)	inactive
Cc1ccc(S(=O)(=O)n2ccc(-c3ccc4ccn(S(=O)(=O)c5ccc(C)cc5)c4c3)c2)cc1	inactive
CSCCC(C(=O)O)N(CC1(O)OCC(O)C(O)C1O)N=O (stereo unspecified)	inactive
CCCCN(CCCC)CC(C(=O)Nc1ccccc1)/C(C)=N\NC(=O)c1ccncc1 (stereo unspecified)	inactive

Fill in: this test's call for COc1ccc(C2N(NC(=O)c3ccncc3)C(=O)CS2(=O)=O)cc1F (stereo unspecified) is ___
inactive

Item: Cc1ccc(NC(=S)NNC(=O)c2cc(-c3ccccc3)nc3ccccc23)cc1C
inactive

Item: CCOC(=O)C1=C(C)N(c2ccc(Cl)cc2)C2(O)C=CC(=O)C3C(=O)N(c4ccccc4)C(=O)C132 (stereo unspecified)
inactive

Item: COC(=O)c1cc(C)ccc1C1CN=NC12Cc1c(C)cc(C)cc1C2=O (stereo unspecified)
inactive

Item: Cc1cc(S(=O)(=O)/N=C2\NCCN2Cc2ccccc2)c(S)cc1Cl
inactive

Item: ClCCCSSCCCCl
inactive

Item: COC1CC(NC(=O)C(F)(F)F)C(OC(C)=O)C(C)O1 (stereo unspecified)
inactive
